measuredAttribute: melting point

Consider the following illustrative entries.
CSc1ccc(-c2nc(-c3cccc(Cl)c3)c(-c3ccnc(NC(C)=O)c3)s2)cc1 [Example Compound 30-5]	207 to 208 °C
Cc1cccc(-c2nc(N(C)C(=O)c3ccc(Cl)nc3)sc2-c2ccnc(NC3CCCCC3)c2)c1 [Example Compound 44-4]	171 to 172 °C
Cc1cccc(-c2nc(NC(=O)OCCCl)sc2-c2ccnc(C)c2)c1 [Example Compound 62]	156 to 158 °C

I'd like to know its melting point. The compound in question is CCC(=O)Nc1cc(-c2sc(-c3ccc(SC)cc3)nc2-c2cccc(C)c2)ccn1 [Example 84-9] 171 to 172 °C

* * *

measuredAttribute: melting point

Answered cases to consult:
CSc1ccc(-c2nc(-c3cccc(C)c3)c(-c3ccnc(N)c3)s2)cc1 [Example Compound 23-2]	181 to 183 °C
Cc1cccc(-c2nc(NC(=O)Nc3ccccc3)sc2-c2ccnc(NC3CCCCC3)c2)c1 [Example Compound 53-2]	198 to 199 °C
COc1ccc(-c2nc(NC(C)=O)sc2-c2ccnc(N)c2)cc1 [Example Compound 50]	247 to 250 °C
CCC(=O)Nc1cc(-c2sc(C3CCNCC3)nc2-c2cccc(Cl)c2)ccn1.Cl.Cl	202 to 203 °C
CCCCC(=O)Nc1cc(-c2sc(CC)nc2-c2cccc(Cl)c2)ccn1 [Example 88-1]	109 to 110 °C

Dear reader, for each entry below, please note its melting point.
1. CCC(=O)Nc1cc(-c2sc(CC)nc2-c2cccc(C(F)(F)F)c2)ccn1 [Example 84-3]
2. Cc1cccc(-c2ncsc2-c2ccnc(N)c2)c1 [Example Compound 27-1]

["126 to 127 °C", "91 to 92 °C"]

* * *

measuredAttribute: melting point

Please review the entries below; each comes with its answer.
Cc1cccc(-c2nc(-c3ccc(S(C)(=O)=O)cc3)sc2N2C=CC=CC2N2CCCCC2)c1 (stereo not shown)	155 to 157 °C
Cc1cccc(-c2nc(N(C)C(=O)c3ccc(C)nc3)sc2-c2ccnc(NC3CCCC3)c2)c1 [Example Compound 46-4]	117 to 118 °C
CCc1nc(-c2cccc(C)c2)c(-c2ccnc(N3CCOCC3)c2)s1	69 to 71 °C
CCC(=O)Nc1cc(-c2sc(-c3ccc(SC)cc3)nc2-c2cccc(Cl)c2)ccn1	187 to 188 °C
CCc1nc(-c2cccs2)c(-c2ccnc(N)c2)s1	159 to 160 °C

Please look at the items below and tell me melting point for each one, in order.
1. CC(=O)Nc1cc(-c2sc(-c3ccc(S(C)(=O)=O)cc3)nc2-c2cccc(C)c2)ccn1
2. CCc1nc(-c2cccc(C)c2)c(-c2ccnc(NC(=O)OC(C)(C)C)c2)s1
3. Cc1cccc(-c2nc(NC(=O)c3ccc(C)nc3)sc2-c2ccnc(NC3CCCCC3)c2)c1
4. Cc1cccc(-c2nc(N(C)C(=O)c3cccnc3)sc2-c2ccnc(NC3CCCCC3)c2)c1
5. CCCC(=O)Nc1cc(-c2sc(CC)nc2-c2cccc(Cl)c2)ccn1
6. Cc1cccc(-c2nc(N(C)C(=O)c3cccnc3)sc2-c2ccnc(NC3CCCC3)c2)c1
7. Cc1cccc(-c2nc(-c3ccc(S(C)(=O)=O)cc3)sc2-c2cc(C)nc(C)c2)c1
8. Cc1cccc(-c2nc(NC(=O)NOc3ccccc3)sc2-c2ccnc(C)c2)c1

1: 222 to 223 °C; 2: 162 to 163 °C; 3: 242 to 243 °C; 4: 147 to 148 °C; 5: 119 to 120 °C; 6: 148 °C; 7: 182 to 184 °C; 8: 154 to 155 °C
